target: Cyclin-dependent kinase 2/cyclin A (Homo sapiens, UniProt P24941); assay: Inhibition of CDK2/cyclinA (unknown origin)
One threshold, 0.5 µM, splits the recorded IC50 values: lower ones are 1, equal or higher ones are -1.

| compound | tgt | label-value |
| --- | --- | --- |
| CCOc1nc(Nc2ccc(S(N)(=O)=O)cc2)nc(N)c1N=O | Cyclin-dependent kinase 2/cyclin A (Homo sapiens, UniProt P24941) | 1 |
| Nc1nc(Nc2ccc(C(=O)O)cc2)nc(OCC2CCCCC2)c1C=O | Cyclin-dependent kinase 2/cyclin A (Homo sapiens, UniProt P24941) | -1 |
| CCN(CC)C(=O)c1ccc(Nc2nc(N)c(N=O)c(OCC3CCCCC3)n2)cc1 | Cyclin-dependent kinase 2/cyclin A (Homo sapiens, UniProt P24941) | 1 |
| COc1cccc(Nc2ncc(N=O)c(OCC3CCCCC3)n2)c1 | Cyclin-dependent kinase 2/cyclin A (Homo sapiens, UniProt P24941) | 1 |
| Nc1nc(N)c(-c2cccs2)c(OCC2CCCCC2)n1 | Cyclin-dependent kinase 2/cyclin A (Homo sapiens, UniProt P24941) | -1 |
| Nc1nc(Nc2ccc(S(N)(=O)=O)cc2)nc(OCC2CCCCC2)c1C=O | Cyclin-dependent kinase 2/cyclin A (Homo sapiens, UniProt P24941) | 1 |
| CC(C)Oc1nc(Nc2ccc(S(N)(=O)=O)cc2)nc(N)c1C=O | Cyclin-dependent kinase 2/cyclin A (Homo sapiens, UniProt P24941) | 1 |
| Brc1cccc(Nc2nccc(OCC3CCCCC3)n2)c1 | Cyclin-dependent kinase 2/cyclin A (Homo sapiens, UniProt P24941) | -1 |
| O=Nc1cnc(Nc2ccc(S(=O)(=O)Nc3nccs3)cc2)nc1OCC1CCCCC1 | Cyclin-dependent kinase 2/cyclin A (Homo sapiens, UniProt P24941) | 1 |
| CCOc1nc(Nc2ccc(OC)cc2)nc(N)c1C=O | Cyclin-dependent kinase 2/cyclin A (Homo sapiens, UniProt P24941) | -1 |
| COc1ccc(Nc2nc(N)c(C=O)c(OC(C)C)n2)cc1 | Cyclin-dependent kinase 2/cyclin A (Homo sapiens, UniProt P24941) | -1 |
| Nc1nc(N)c([N+](=O)[O-])c(OCC2CCCCC2)n1 | Cyclin-dependent kinase 2/cyclin A (Homo sapiens, UniProt P24941) | -1 |
| N#CCc1ccc(Nc2nc(N)cc(OCC3CCCCC3)n2)cc1 | Cyclin-dependent kinase 2/cyclin A (Homo sapiens, UniProt P24941) | -1 |
| CC[C@@H](C)Oc1nc(Nc2ccc(S(N)(=O)=O)cc2)ncc1C=O | Cyclin-dependent kinase 2/cyclin A (Homo sapiens, UniProt P24941) | 1 |
| O=Nc1cnc(Nc2ccc(S(=O)(=O)NCC3CCCO3)cc2)nc1OCC1CCCCC1 (configuration not stated) | Cyclin-dependent kinase 2/cyclin A (Homo sapiens, UniProt P24941) | 1 |
| CCOc1nc(Nc2ccc(S(N)(=O)=O)cc2)nc(N)c1C=O | Cyclin-dependent kinase 2/cyclin A (Homo sapiens, UniProt P24941) | 1 |
| CCN(CC)S(=O)(=O)c1ccc(Nc2ncc(N=O)c(OCC3CCCCC3)n2)cc1 | Cyclin-dependent kinase 2/cyclin A (Homo sapiens, UniProt P24941) | 1 |
| Nc1nc(Nc2ccc(S(N)(=O)=O)cc2)nc(OCC2CCCCC2)c1/C=N/O | Cyclin-dependent kinase 2/cyclin A (Homo sapiens, UniProt P24941) | 1 |
| N#CCc1cccc(Nc2nc(N)c(N=O)c(OCC3CCCCC3)n2)c1 | Cyclin-dependent kinase 2/cyclin A (Homo sapiens, UniProt P24941) | 1 |
| N#Cc1c(N)nc(N)nc1OCC1CCCCC1 | Cyclin-dependent kinase 2/cyclin A (Homo sapiens, UniProt P24941) | -1 |
| NC(=O)c1ccc(Nc2ncc(N=O)c(OCC3CCCCC3)n2)cc1 | Cyclin-dependent kinase 2/cyclin A (Homo sapiens, UniProt P24941) | 1 |

This collection of values is drawn from ChEMBL document CHEMBL3045022.
